# EXPERIMENT SUMMARY: NCI Yeast Anticancer Drug Screen. Data for the cln2 rad14 strain (AID 165);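 note: 0% = growth equal to vehicle treated cultures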
# PARTICULARS: S. cerevisiae cln2 rad14 strain, at 50.0 µM
This is part of a sample that, as a whole, favours compounds with a hit. Of some 79,000 tested, about 15% had one in any assay. The source made the active and inactive calls. Cut-off read from the data, not from the text of the source: active = growth inhibition above about 70%; inactive = the rest.
Select the correct class. Options are label 1 (active), label 0 (inactive) and nothing else.

Known results for compounds:
COMPOUND	DISCRETE LABEL
CCCCC(CC)COC(=O)COc1ccc(C(C)c2ccc(OCC(=O)OCC(CC)CCCC)cc2)cc1 (configuration not stated)	label 0
CNCC(C(=O)C(CNC)c1ccccc1)c1ccccc1 (configuration not stated)	label 0
NC(Cc1ccc(F)cc1)(C(=O)O)c1ccccc1 (configuration not stated)	label 0
O=C1C=CC(=O)C2C1C21C2CCCC(C2)C2CCCC1C2 (configuration not stated)	label 0
C1=C(c2ccccc2)Cc2ccccc21	label 0
COC(=O)CCC(CCc1ccccc1)(C(C)=O)C(C)=O	label 0

Q. Entry CC1=NNC(c2ccco2)C1 (configuration not stated) : call = ?
A. label 0

Q. Entry Cc1ccc(Nc2ccc(O)cc2)cc1 : call = ?
A. label 0

Q. Entry CC(C)C(=O)OCC1OC(n2cnc3c(=S)nc[nH]c32)C(OC(=O)C(C)C)C1OC(=O)C(C)C (configuration not stated) : call = ?
A. label 0

Q. Entry N#C/C(=C\c1cccnc1)c1ccc(Br)cc1 : call = ?
A. label 0

Q. Entry CC(C)C1CCC2(C)C(CCC3C4(C)CCCC32OC4=O)C1 (configuration not stated) : call = ?
A. label 0

Q. Entry CSCCC(NC(=O)CCCOc1ccc(Cl)cc1C)C(=O)O (configuration not stated) : call = ?
A. label 0

Q. Entry ClCCOCc1ccc(Cl)c(Cl)c1 : call = ?
A. label 0

Q. Entry C[C@@]12CCC(=O)c3coc(c31)C(=O)c1cc3c(cc12)C(=O)C=CC3=O : call = ?
A. label 1

Q. Entry CC(=O)C(=Cc1c[nH]c2ccccc12)C(C)=O : call = ?
A. label 0

Q. Entry O=C(CCBr)Nc1ccccc1 : call = ?
A. label 0

Q. Entry CN(CCO)CC(O)Cn1cnc2c(N)ncnc21 (configuration not stated) : call = ?
A. label 0

Q. Entry O=C(CC(C(=O)c1cccs1)c1cccs1)c1ccccc1Cl (configuration not stated) : call = ?
A. label 0

---

# EXPERIMENT SUMMARY: NCI Yeast Anticancer Drug Screen. Data for the bub3 strain (AID 167)
# PARTICULARS: S. cerevisiae bub3 mutant strain, at 50.0 µM
This is part of a sample that, as a whole, favours compounds with a hit. Of some 79,000 tested, about 15% had one in any assay. The source made the active and inactive calls. Cut-off read from the data, not from the text of the source: active = growth inhibition above about 70%; inactive = the rest.
Select the correct class. Options are t = active, f = inactive and nothing else.

Known results for compounds:
COMPOUND	DISCRETE LABEL
CC1C(O)CCC2C1(C)CCC1C2(C)CCC2(C)C3CC(C)(C)CCC3(C)CCC12C (stereo unspecified)	f
Cc1c(O)ccc2c1CCCC2	f
CC(C)(C)OC(=O)N(CCCN)CCCCN	f
Cc1cc(S(=O)(=O)O)c(NC(=O)C(=O)C2C=CCS2(=O)=O)cc1Cl (stereo unspecified)	f
O=C(Cc1ccccc1)NCc1ccc(Cl)cc1	f

Q. Entry CCCC(=O)C(CC)C(=O)OCC (stereo unspecified) : call = ?
A. f

Q. Entry O=C1C2C3CCC(O3)C2C(=O)N1Cc1ccccc1CN1C(=O)C2C3CCC(O3)C2C1=O (stereo unspecified) : call = ?
A. t

Q. Entry CCOC(=O)N1CCN(CCO)CC1 : call = ?
A. f

Hey, just so you know, these numbers are from PubChem BioAssay (NCI).
